Biological target: activated ERK2 (Homo sapiens (Human), UniProt P28482)
Sequence (P28482 whole entry): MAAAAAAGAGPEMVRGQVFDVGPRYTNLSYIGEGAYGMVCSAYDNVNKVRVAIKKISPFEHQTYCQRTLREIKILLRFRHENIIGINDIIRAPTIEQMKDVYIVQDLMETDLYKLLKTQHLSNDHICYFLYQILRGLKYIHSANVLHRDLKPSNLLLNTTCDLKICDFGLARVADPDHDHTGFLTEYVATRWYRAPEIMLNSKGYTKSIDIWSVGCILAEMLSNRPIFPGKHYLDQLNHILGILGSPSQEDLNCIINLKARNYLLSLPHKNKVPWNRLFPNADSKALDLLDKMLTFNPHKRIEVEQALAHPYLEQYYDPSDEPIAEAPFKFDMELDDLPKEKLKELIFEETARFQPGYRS
Test: Activated ERK2 (20 pM) Kinase Assay (AlphaScreen, ERKtide phosphorylation)
Assay type: biochemical
Conditions: 0.02 nM ERK2, 400 nM ERKtide peptide, 35 μM ATP, 30 min preincubation
observable: IC50 (nM)

Sample answers from the record:
molecule | observable | result_units | test_result
CCNC[C@@H](NC(=O)c1ccc(-c2nc(C3CCOCC3)cnc2N)cc1F)c1cccc(Br)c1 | IC50 | nM | 0.0248
Nc1ncc(C2CCOCC2)nc1-c1ccc(C(=O)N[C@H](CO)c2cc(F)cc(CF)c2)c(F)c1 | IC50 | nM | 0.01
Nc1ncc([C@H]2CC[C@H](O)CC2)nc1-c1ccc(C(=O)N[C@H](CO)c2cccc(Br)c2)c(F)c1 | IC50 | nM | 0.0485
Nc1ncc([C@H]2CCC[C@@H](O)C2)nc1-c1ccc(C(=O)N[C@H](CO)c2cccc(Cl)c2)c(F)c1 (single isomer, unassigned) [Example 198] | IC50 | nM | 0.223

P: Nc1ncc([C@H]2CC[C@@H](O)[C@@H](O)C2)nc1-c1ccc(C(=O)N[C@H](CO)c2cc(F)cc(Br)c2)c(F)c1
Q: Nc1ncc([C@H]2CC[C@H](O)[C@@H](O)C2)nc1-c1ccc(C(=O)N[C@H](CO)c2cc(F)cc(I)c2)c(F)c1
R: Nc1ncc([C@@H]2CC[C@H](O)[C@H](F)C2)nc1-c1ccc(C(=O)N[C@H](CO)c2cc(F)cc(Br)c2)c(F)c1
S: Cc1c(-c2cnc(N)c(-c3ccc(C(=O)N[C@H](CO)c4cccc(CF)c4)c(F)c3)c2)cnn1C
Task: Arrange the 4 entries by IC50 so the values rise. Output spec: labels arranged per the requested ranking.
Output: Q, S, P, R

A: Nc1ncc([C@H]2CCC[C@@H](O)C2)nc1-c1ccc(C(=O)N[C@H](CO)c2cccc(Cl)c2)c(F)c1 (single isomer, unassigned) [Example 199]
B: Nc1ncc([C@H]2CC[C@H](O)C(F)(F)C2)nc1-c1ccc(C(=O)N[C@H](CO)c2cc(F)cc(Br)c2)c(F)c1
C: CN1C[C@H](NC(=O)c2ccc(-c3cc(-c4cnn(C)c4)cnc3N)cc2F)[C@@H](c2ccc(Cl)c(F)c2)C1 (stereo in doubt)
D: CNC[C@@H](NC(=O)c1ccc(-c2nc(C3CCOCC3)cnc2N)cc1F)c1cccc(Br)c1
Task: Hey, quick one: sort these by IC50, largest value first please. Output spec: labels arranged per the requested ranking.
Output: C, A, B, D

P: Nc1ncc(C(=O)N2CC(O)C2)nc1-c1ccc(C(=O)N[C@H](CO)c2cc(F)cc(Br)c2)c(F)c1
Q: Nc1ncc([C@H]2CC[C@@H](O)CC2)nc1-c1ccc(C(=O)N[C@H](CO)c2cc(F)cc(CF)c2)c(F)c1
Task: // which entry reports the smaller IC50, P or Q ? State the label of the item chosen.
Output: Q
(Q: 0.211 nM, P: 2.02 nM)
